Molecular target: Glutamate receptor 2 (Homo sapiens, UniProt P42262)
Sequence (P42262 whole entry, canonical isoform): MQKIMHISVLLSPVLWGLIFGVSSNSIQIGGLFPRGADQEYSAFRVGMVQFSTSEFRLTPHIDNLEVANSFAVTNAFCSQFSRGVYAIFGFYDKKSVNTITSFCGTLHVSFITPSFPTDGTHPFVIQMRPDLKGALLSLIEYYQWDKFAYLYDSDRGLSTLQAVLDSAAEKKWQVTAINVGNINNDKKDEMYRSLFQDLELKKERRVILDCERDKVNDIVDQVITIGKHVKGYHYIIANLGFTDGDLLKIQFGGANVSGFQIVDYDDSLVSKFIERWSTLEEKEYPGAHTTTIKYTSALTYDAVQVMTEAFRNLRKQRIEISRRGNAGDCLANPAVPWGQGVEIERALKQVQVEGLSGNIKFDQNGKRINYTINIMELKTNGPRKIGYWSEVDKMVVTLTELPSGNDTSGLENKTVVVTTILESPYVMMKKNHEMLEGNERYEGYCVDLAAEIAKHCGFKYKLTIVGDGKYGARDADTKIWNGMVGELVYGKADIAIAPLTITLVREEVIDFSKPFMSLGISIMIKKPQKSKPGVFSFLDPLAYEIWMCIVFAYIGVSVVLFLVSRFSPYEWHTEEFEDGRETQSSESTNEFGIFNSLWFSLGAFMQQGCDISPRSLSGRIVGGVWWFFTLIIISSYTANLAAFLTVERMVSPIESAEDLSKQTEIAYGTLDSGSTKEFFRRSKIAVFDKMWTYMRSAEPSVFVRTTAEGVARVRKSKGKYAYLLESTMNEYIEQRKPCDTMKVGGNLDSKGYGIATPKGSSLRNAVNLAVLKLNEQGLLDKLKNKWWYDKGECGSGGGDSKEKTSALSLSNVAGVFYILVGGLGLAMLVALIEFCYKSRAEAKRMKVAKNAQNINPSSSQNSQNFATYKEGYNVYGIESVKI
Assay: Antagonist activity at open state of GluA2Qflip isoform (unknown origin) expressed in HEK293 cells assessed as reduction in glutamate-induced current response in presence of 3 mM glutamate by whole cell assay relative to control
Assay type: cell-based
Settings: read-out: Ki
propertyName: Ki (µM)

1. Cc1cc(C2=NN(CC3CC(Br)=NO3)C(=O)Cc3cc4c(cc32)OCCO4)ccc1N (configuration not stated)
2. Nc1ccc(C2=NN(C3CC(Br)=NO3)C(=O)Cc3cc4c(cc32)OCCO4)cc1 (configuration not stated)
Qu. Which value of Ki is smaller, the one for 1 or the one for 2 ? # answer = label of selected item
Ans. 2
